- METHOD_DESCRIPTION: qHTS of pediatric cancer cell lines to identify multiple opportunities for drug repurposing: Confirmatory screen for SK-N-SH cells (AID 1347129);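 also: cells exposed to compound for 48 h before viability read; nearly all actives have a fitted effect of over 60% in size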
- ASSAY_SETUP: SK-N-SH neuroblastoma cell viability; series mostly up to 46.1 µM
Results filed as inconclusive are left out. Activity calls are given as the source filed them. Calls follow the shape of the dose curve; as a rule, active = well fitted cell-killing curve with a large enough effect; inconclusive = small, poorly fitted or top-dose-only effect; inactive = flat fitted curve, though single readings scatter.
Assign a class; possible classes are active, inactive

Task: Test call for this compound, please: "CC(=O)O[C@]1(C(C)=O)CC[C@@H]2[C@@H]3C[C@H](C)C4=CC(=O)CC[C@]4(C)[C@H]3CC[C@@]21C"
Result: inactive

Task: Recorded test call requested for "O=C(NCc1ccncc1)C12C[C@H]3C[C@@H](C1)CC(c1ccc(Cl)cc1)(C3)C2"
Result: inactive

Task: # outcome recorded in this test, key = "Oc1ccc(C2CCN(c3ccnc4ccccc34)CC2)cc1O"
Result: active

Task: How was "CC[C@]1(O)C[C@@H]2CN(CCc3c([nH]c4ccccc34)[C@@](C(=O)OC)(c3cc4c(cc3OC)N(C)[C@H]3[C@@](O)(C(=O)OC)[C@H](OC(C)=O)[C@]5(CC)C=CCN6CC[C@]43[C@@H]65)C2)C1" classified in this test?
Result: active
